Test system: OVCAR-4 ovarian
Assay: NCI-60 one-dose screen, 48 h
Conditions: 10 µM unless noted
This is part of a sample that, as a whole, favours compounds with a hit. Of some 83,000 tested, about 20% had one in any assay. The source made the active and inactive calls. Rule for the calls: active = growth percent below 10; inactive = the rest.
Just give me one of these, please: 1 = active, -1 = inactive

Exercise: Outcome logged for `c1ccc(Nc2cc(-c3cccnc3)[nH]n2)cc1` in this assay:
Solution: -1

Exercise: Another compound: `c1ccc(-c2nc3nonc3nc2-c2ccccc2)cc1`
Solution: -1

Exercise: Another compound: CC(C)(C)NC(=O)C(OC(=O)c1cccc(Cl)c1)c1ccc(Cl)cc1 (centres undefined)
Solution: -1

Exercise: Another compound: `CCCCn1c(=O)c(-c2cc(-c3ccc(Cl)cc3)nc(-c3ccc(Cl)cc3)c2)cc2cc(Cl)ccc21`
Solution: -1

More entries:
Exercise: Outcome logged for CCCC1CCC(O)(C(C)(O)C(=O)NC2C(=O)N3NCCCC3C(=O)N(O)C(C)C(=O)N3NCCCC3C(=O)N3NCC(O)CC3C(=O)NC(C)C(=O)OC2C(C)C)OC1CC (centres undefined) in this assay:
Solution: 1

Exercise: Another compound: CCOC(=O)C1=C(N)Oc2c(sc3c(C)cccc23)C1c1ccc(F)cc1 (centres undefined)
Solution: -1

Exercise: Another compound: `COc1cc2cc(Oc3ccc(NC(=O)Nc4cc(C(F)(F)F)cc(C(F)(F)F)c4)cc3)c(C)nc2cc1OCCN1CCOCC1`
Solution: -1

Exercise: Another compound: `O=C1/C(=C/c2ccccc2[N+](=O)[O-])Oc2ccc(O)c(O)c21`
Solution: -1

Exercise: Another compound: `CCCCOc1ccc(/C=N/NC(N)=S)cc1`
Solution: -1
